protein stability index values for the variants below.
B1: WEE1 (parent)
chain: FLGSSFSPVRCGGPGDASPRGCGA

Variants of: B1
protocol details: protein stability index of a GFP-peptide fusion (GPS, HEK-293T) (PSI 1-6); higher = more stable;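 note: lentivirally expressed fusions sorted by FACS into six bins by GFP to DsRed ratio, PSI derived from sequencing read proportions per bin multiplied by bin number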
details: c terminus: a fixed tail appended

{"mutant code": "A17P", "protein stability index": 2.31}
{"mutant code": "G23F", "protein stability index": 2.37}
{"mutant code": "C11M", "protein stability index": 2.4}
{"mutant code": "G13V", "protein stability index": 2.05}

Query: Look up and report measured protein stability index for this entry: R10W
Reply: 4.78

Query: Look up and report measured protein stability index for this entry: G13C
Reply: 2.58

Source of measurements: the supplement of paper PMC10567573
